- Test system: U251 CNS
- Method summary: NCI-60 one-dose screen, 48 h
- Condition notes: 10 µM unless noted
The panel holds about 83,000 compounds, 20% with a hit somewhere; the sample as a whole holds those more often. Active and inactive are the calls of the source. Rule for the calls: active = growth percent below 10; inactive = the rest.
Permitted responses: Yes for active, No for inactive

Molecule	Assigned label
CCOCCNC1=C(Cl)C(=O)c2ccccc2C1=O	No
O=C1C(Cl)=C(NCCCCCCNC2=C(Cl)C(=O)c3ccccc3C2=O)C(=O)c2ccccc21	No
C[PH+](c1nc2ccccc2nc1[PH+](C)C(C)(C)C)C(C)(C)C.C[PH+](c1nc2ccccc2nc1[PH+](C)C(C)(C)C)C(C)(C)C.[Au+].[Cl-] (configuration not stated)	Yes

// query Please let me know the test result on file for COc1cc2ncnc(Nc3ccc(S(=O)(=O)Nc4cc(C)on4)cc3)c2cc1OCCCN1CCN(c2ccc(F)cc2)CC1 .
// result No

// query Please let me know the test result on file for Cc1c(-c2ccc(O)cc2)n(Cc2ccc(OCCN3CCCCCC3)cc2)c2ccc(O)cc12 .
// result No

// query Please let me know the test result on file for O=c1c2cnn(-c3ccccc3)c2n2c(CN3CCOCC3)nnc2n1-c1ccccc1 .
// result No
